B1: TPD52L2 (parent)
chain: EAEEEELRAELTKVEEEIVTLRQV

Variants of: B1
ASSAY_TEXT: protein stability index of a GFP-peptide fusion (GPS, HEK-293T) (PSI 1-6); higher = more stable;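 also: lentivirally expressed fusions sorted by FACS into six bins by GFP to DsRed ratio, PSI derived from sequencing read proportions per bin multiplied by bin number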
MEASUREMENT_CONDITIONS: c terminus: a fixed tail appended
Would you mind classing the entries by protein stability index? Ranges: low-valued = under 3, mid-valued = from 3 up to 4, high-valued = 4 and over

{"columns": ["MUTATION_STRING", "ASSIGNED_CATEGORY"],
 "data": [
  ["E4M", "mid-valued"],
  ["V19G", "high-valued"],
  ["T12H", "mid-valued"],
  ["K13E", "high-valued"],
  ["L7W", "high-valued"],
  ["E15Q", "high-valued"],
  ["A2I", "low-valued"],
  ["L11N", "high-valued"],
  ["E1F", "low-valued"],
  ["E10M", "mid-valued"],
  ["V24S", "high-valued"],
  ["E1L", "low-valued"],
  ["E6L", "low-valued"],
  ["L11H", "high-valued"],
  ["E16M", "low-valued"]
]}
